Test: Rat pharmacokinetics, i.v. bolus
Assay type: in vivo, Sprague-Dawley rats
Details: rat, in vivo, iv, 15 mg/kg, male Sprague-Dawley rats, single 15 mg/kg slow i.v. bolus, plasma, LC-MS/MS, noncompartmental, n = 3 to 5/dose; read-out: Vss (volume of distribution at steady state)
Protocol: In one of three rat studies reported here, a single 5-, 15-, or 45-mg/kg dose of CD101 was administered by slow i.v. bolus (∼3 min) to Sprague-Dawley rats (n = 3 to 5/dose). […] For each of the pharmacokinetic studies, whole-blood samples (K3EDTA as anticoagulant) were collected and centrifuged within 30 min of collection. […] When necessary, dilutions with blank matrix were made for samples that quantified above the upper limit of quantitation. […]
Starred links: 1 amine or outer side, 2 acyl side, 3 side chain; linkers in the order of their positions; H or OH if unused. Positions of bridges follow the written chain, without caps; N, C: chain ends. Non-standard residues stand in square brackets, D forms with d. Residues, ends and D or L forms follow the SMILES beside them. *: point of attachment. Orn(4R-OH,5R-OCH2CH2NMe3+) = C[N+](C)(C)CCO[C@@H](N[*:3])[C@H](O)C[C@H](N[*:1])C(=O)[*:2]; pTerphenylCO(4''-OnC5H11) = CCCCCOc1ccc(-c2ccc(-c3ccc(C(=O)*)cc3)cc2)cc1; hTyr(3S-OH,4S-OH) = N[C@H](C(=O)O)[C@H](O)[C@@H](O)c1ccc(O)cc1; Pro(3S-OH,4S-Me) = C[C@H]1CN[C@H](C(=O)O)[C@H]1O; Hyp = O=C(O)[C@@H]1C[C@@H](O)CN1
ENDPOINT: Vd (L/kg)
# output: bare number, implied unit L/kg

Which value of Vd has been reported for CCCCCOc1ccc(-c2ccc(-c3ccc(C(=O)N[C@H]4C[C@@H](O)[C@@H](OCC[N+](C)(C)C)NC(=O)[C@@H]5[C@@H](O)[C@@H](C)CN5C(=O)[C@H]([C@@H](C)O)NC(=O)[C@H]([C@H](O)[C@@H](O)c5ccc(O)cc5)NC(=O)[C@@H]5C[C@@H](O)CN5C(=O)[C@H]([C@@H](C)O)NC4=O)cc3)cc2)cc1 [CD101] ({pTerphenylCO(4''-OnC5H11)}-[Orn(4R-OH,5R-OCH2CH2NMe3+)]T[Hyp][hTyr(3S-OH,4S-OH)]T[Pro(3S-OH,4S-Me)]; lactam 1-C) in the records? 1.42

###

Test: Rat pharmacokinetics, i.v. bolus
Assay type: in vivo, Sprague-Dawley rats
Conditions: rat, in vivo, iv, 15 mg/kg, female Sprague-Dawley rats, single 15 mg/kg slow i.v. bolus, plasma, LC-MS/MS, noncompartmental, n = 3 to 5/dose
Protocol: In one of three rat studies reported here, a single 5-, 15-, or 45-mg/kg dose of CD101 was administered by slow i.v. bolus (∼3 min) to Sprague-Dawley rats (n = 3 to 5/dose). […] For each of the pharmacokinetic studies, whole-blood samples (K3EDTA as anticoagulant) were collected and centrifuged within 30 min of collection. […] When necessary, dilutions with blank matrix were made for samples that quantified above the upper limit of quantitation. […]
Starred links: 1 amine or outer side, 2 acyl side, 3 side chain; linkers in the order of their positions; H or OH if unused. Positions of bridges follow the written chain, without caps; N, C: chain ends. Non-standard residues stand in square brackets, D forms with d. Residues, ends and D or L forms follow the SMILES beside them. *: point of attachment. Orn(4R-OH,5R-OCH2CH2NMe3+) = C[N+](C)(C)CCO[C@@H](N[*:3])[C@H](O)C[C@H](N[*:1])C(=O)[*:2]; pTerphenylCO(4''-OnC5H11) = CCCCCOc1ccc(-c2ccc(-c3ccc(C(=O)*)cc3)cc2)cc1; hTyr(3S-OH,4S-OH) = N[C@H](C(=O)O)[C@H](O)[C@@H](O)c1ccc(O)cc1; Pro(3S-OH,4S-Me) = C[C@H]1CN[C@H](C(=O)O)[C@H]1O; Hyp = O=C(O)[C@@H]1C[C@@H](O)CN1
ENDPOINT: half-life (h)
Only the number, expressed in h, is required.

// query half-life value for entry CCCCCOc1ccc(-c2ccc(-c3ccc(C(=O)N[C@H]4C[C@@H](O)[C@@H](OCC[N+](C)(C)C)NC(=O)[C@@H]5[C@@H](O)[C@@H](C)CN5C(=O)[C@H]([C@@H](C)O)NC(=O)[C@H]([C@H](O)[C@@H](O)c5ccc(O)cc5)NC(=O)[C@@H]5C[C@@H](O)CN5C(=O)[C@H]([C@@H](C)O)NC4=O)cc3)cc2)cc1 [CD101] ({pTerphenylCO(4''-OnC5H11)}-[Orn(4R-OH,5R-OCH2CH2NMe3+)]T[Hyp][hTyr(3S-OH,4S-OH)]T[Pro(3S-OH,4S-Me)]; lactam 1-C) 34.9

###

Assay: Mouse pharmacokinetics, i.p. injection
Conditions: in vivo, ip, female ICR (CD-1) mice, single 1 mg/kg i.p., plasma, LC-MS/MS, noncompartmental from mean profile, n = 3/time point
Starred links: 1 amine or outer side, 2 acyl side, 3 side chain; linkers in the order of their positions; H or OH if unused. Positions of bridges follow the written chain, without caps; N, C: chain ends. Non-standard residues stand in square brackets, D forms with d. Residues, ends and D or L forms follow the SMILES beside them. *: point of attachment. Orn(4R-OH,5R-OCH2CH2NMe3+) = C[N+](C)(C)CCO[C@@H](N[*:3])[C@H](O)C[C@H](N[*:1])C(=O)[*:2]; pTerphenylCO(4''-OnC5H11) = CCCCCOc1ccc(-c2ccc(-c3ccc(C(=O)*)cc3)cc2)cc1; hTyr(3S-OH,4S-OH) = N[C@H](C(=O)O)[C@H](O)[C@@H](O)c1ccc(O)cc1; Pro(3S-OH,4S-Me) = C[C@H]1CN[C@H](C(=O)O)[C@H]1O; Hyp = O=C(O)[C@@H]1C[C@@H](O)CN1
ENDPOINT: Tmax (h)
Numeric only. Scale: h

What does the data say about its Tmax? Entry: CCCCCOc1ccc(-c2ccc(-c3ccc(C(=O)N[C@H]4C[C@@H](O)[C@@H](OCC[N+](C)(C)C)NC(=O)[C@@H]5[C@@H](O)[C@@H](C)CN5C(=O)[C@H]([C@@H](C)O)NC(=O)[C@H]([C@H](O)[C@@H](O)c5ccc(O)cc5)NC(=O)[C@@H]5C[C@@H](O)CN5C(=O)[C@H]([C@@H](C)O)NC4=O)cc3)cc2)cc1 [CD101] ({pTerphenylCO(4''-OnC5H11)}-[Orn(4R-OH,5R-OCH2CH2NMe3+)]T[Hyp][hTyr(3S-OH,4S-OH)]T[Pro(3S-OH,4S-Me)]; lactam 1-C) 1

###

Test: Cynomolgus monkey pharmacokinetics, i.v. bolus
Parameters: species or system cynomolgus monkeys
Settings: in vivo, iv, male cynomolgus monkeys, single 2.13 mg/kg slow i.v. bolus, plasma, LC-MS/MS, noncompartmental, n = 3, read-out: Vss (volume of distribution at steady state)
Description: A single dose of 2.13 mg/kg CD101 or 2.8 mg/kg anidulafungin was administered by slow i.v. bolus (∼10 min) to cynomolgus monkeys (n = 3/group), and blood samples (via peripheral vein) were drawn for plasma processing at 0.167, 0.5, 1, 3, 8, 12, 24, 48, and 72 h postdose. […] Pharmacokinetic parameters were calculated by noncompartmental analysis using Phoenix WinNonlin (version 6.3; Pharsight, Mountain View, CA) from either individual or mean (mouse) concentration-time profiles. […]
Starred links: 1 amine or outer side, 2 acyl side, 3 side chain; linkers in the order of their positions; H or OH if unused. Positions of bridges follow the written chain, without caps; N, C: chain ends. Non-standard residues stand in square brackets, D forms with d. Residues, ends and D or L forms follow the SMILES beside them. *: point of attachment. Orn(4R-OH,5R-OCH2CH2NMe3+) = C[N+](C)(C)CCO[C@@H](N[*:3])[C@H](O)C[C@H](N[*:1])C(=O)[*:2]; pTerphenylCO(4''-OnC5H11) = CCCCCOc1ccc(-c2ccc(-c3ccc(C(=O)*)cc3)cc2)cc1; hTyr(3S-OH,4S-OH) = N[C@H](C(=O)O)[C@H](O)[C@@H](O)c1ccc(O)cc1; Pro(3S-OH,4S-Me) = C[C@H]1CN[C@H](C(=O)O)[C@H]1O; Hyp = O=C(O)[C@@H]1C[C@@H](O)CN1
ENDPOINT: Vd (L/kg)
Express it in L/kg; write the number only.

Bench note: what Vd did CCCCCOc1ccc(-c2ccc(-c3ccc(C(=O)N[C@H]4C[C@@H](O)[C@@H](OCC[N+](C)(C)C)NC(=O)[C@@H]5[C@@H](O)[C@@H](C)CN5C(=O)[C@H]([C@@H](C)O)NC(=O)[C@H]([C@H](O)[C@@H](O)c5ccc(O)cc5)NC(=O)[C@@H]5C[C@@H](O)CN5C(=O)[C@H]([C@@H](C)O)NC4=O)cc3)cc2)cc1 [CD101] ({pTerphenylCO(4''-OnC5H11)}-[Orn(4R-OH,5R-OCH2CH2NMe3+)]T[Hyp][hTyr(3S-OH,4S-OH)]T[Pro(3S-OH,4S-Me)]; lactam 1-C) show? 0.597
